src = patent US12054463B2

Study Target: D5 (Homo sapiens, UniProt P21918)
Sequence (P21918 whole entry): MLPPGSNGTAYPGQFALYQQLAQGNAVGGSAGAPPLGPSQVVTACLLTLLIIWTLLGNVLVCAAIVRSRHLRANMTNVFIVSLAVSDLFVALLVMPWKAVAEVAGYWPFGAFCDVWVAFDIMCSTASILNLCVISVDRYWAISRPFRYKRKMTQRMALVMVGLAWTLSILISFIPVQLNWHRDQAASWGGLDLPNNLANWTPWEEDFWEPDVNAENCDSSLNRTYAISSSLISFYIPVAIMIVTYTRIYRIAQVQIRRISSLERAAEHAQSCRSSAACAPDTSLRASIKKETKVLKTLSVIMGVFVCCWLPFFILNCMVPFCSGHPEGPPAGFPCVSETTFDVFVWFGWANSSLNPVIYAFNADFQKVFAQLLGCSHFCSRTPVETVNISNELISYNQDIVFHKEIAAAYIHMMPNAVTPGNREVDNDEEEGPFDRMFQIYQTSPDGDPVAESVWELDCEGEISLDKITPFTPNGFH
Measured Property: Ki

Entry COc1ccc(N(C)c2nc(C)nc3ccccc23)cc1 , D5 (Homo sapiens, UniProt P21918) data, Ki value: > 10 µM

###

Study Target: β3 (Homo sapiens, UniProt P13945)
Sequence (P13945 whole entry): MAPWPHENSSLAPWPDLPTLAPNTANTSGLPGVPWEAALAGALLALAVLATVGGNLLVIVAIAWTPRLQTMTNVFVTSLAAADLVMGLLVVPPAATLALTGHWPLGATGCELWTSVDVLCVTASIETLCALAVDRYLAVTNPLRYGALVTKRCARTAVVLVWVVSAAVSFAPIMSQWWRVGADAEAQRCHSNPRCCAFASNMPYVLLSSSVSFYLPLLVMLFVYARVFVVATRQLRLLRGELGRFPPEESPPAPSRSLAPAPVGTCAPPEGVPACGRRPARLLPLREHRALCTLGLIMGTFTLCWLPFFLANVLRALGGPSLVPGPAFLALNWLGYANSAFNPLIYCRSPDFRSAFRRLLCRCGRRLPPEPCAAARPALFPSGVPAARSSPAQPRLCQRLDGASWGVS
pKi: −log10 of the molar value.
Measured Property: pKi

The molecule identified as COc1ccc(N(C)c2nc(C)nc3ccccc23)cc1 registered its pKi at < 5.00

###

# collection of Ki values tested on DAT (Homo sapiens)
# Sequence (Q01959 whole entry, species assumed): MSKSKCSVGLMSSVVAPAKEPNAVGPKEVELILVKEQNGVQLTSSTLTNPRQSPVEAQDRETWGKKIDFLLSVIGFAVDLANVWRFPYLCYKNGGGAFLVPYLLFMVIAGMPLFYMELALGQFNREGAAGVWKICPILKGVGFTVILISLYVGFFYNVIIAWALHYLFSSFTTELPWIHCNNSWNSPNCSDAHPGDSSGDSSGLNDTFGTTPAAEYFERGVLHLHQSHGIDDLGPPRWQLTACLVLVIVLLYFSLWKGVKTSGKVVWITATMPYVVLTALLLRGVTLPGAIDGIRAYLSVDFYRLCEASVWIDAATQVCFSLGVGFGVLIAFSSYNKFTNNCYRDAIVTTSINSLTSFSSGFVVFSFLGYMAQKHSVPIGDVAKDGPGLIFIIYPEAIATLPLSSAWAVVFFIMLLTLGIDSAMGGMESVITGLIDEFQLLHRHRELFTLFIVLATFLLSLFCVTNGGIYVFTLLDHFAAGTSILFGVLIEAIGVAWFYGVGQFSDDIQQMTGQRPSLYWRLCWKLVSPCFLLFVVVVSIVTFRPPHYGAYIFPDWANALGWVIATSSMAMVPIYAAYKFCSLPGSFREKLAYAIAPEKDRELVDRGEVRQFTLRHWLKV

Below: 2 compounds and their reported Ki.
# Compound, Measured Property, Experimental Value
data = [
    ("Cc1nc(N(C)c2ccc(OCCF)cc2)c2ccccc2n1", "Ki", "> 10 µM"),
    ("COc1ccc(N(C)c2ncnc3occ(C)c23)cc1 [HD-800, reference compound]", "Ki", "> 10 µM"),
]

Please look at the following compound next.
The compound identified as Cc1nc(N(C)c2ccc(OCCF)cc2)c2c(C)coc2n1 registered its Ki at > 10 µM
